Assay: NCI Yeast Anticancer Drug Screen. Data for the rad18 strain (AID 177)
Conditions: S. cerevisiae rad18 mutant growth inhibition; at 33.0 µM; active compounds read high
Compounds without any hit were thinned out: in the full panel of roughly 79,000, 15% have a hit.
Recorded growth inhibition split into classes L = under 20%, M = from 20% up to 90%, H = 90% and over

Example entries and their recorded answers appear below.
>>> answer_label("O=C(O)c1ccc2cc(Cl)c3ccccc3c2c1")
"M"
>>> answer_label("C=C(C(=O)OC)N1C(=O)CC(C)C1=O (centres undefined)")
"M"
>>> answer_label("O=C(O)c1ccccc1C(=O)OC1CCc2ccccc2C1 (centres undefined)")
"L"

GET /class?item= "O=[N+]([O-])c1cc[n+]([O-])c(Cl)c1"
H

GET /class?item= "CN(C)CCCn1c2c3ccccc3ccc2c2oc(=O)c3ccccc3c21"
H

GET /class?item= "NCCOc1ccc(/C(=C(/Cl)c2ccccc2)c2ccccc2)cc1"
H

----------
Assay: NCI Yeast Anticancer Drug Screen. Data for the rad50EPP+ strain (AID 151);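 further: 0% = growth of vehicle-treated control cultures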
Conditions: S. cerevisiae rad50 mutant strain, at 11.0 µM, active compounds read high
This is part of a sample that, as a whole, favours compounds with a hit. Of some 79,000 tested, about 15% had one in any assay. Active and inactive are the calls of the source. No stated cut-off is given here; in the data, active means growth inhibition above about 70%; inactive means the rest.
Quantity Kind: growth inhibition

Recorded growth inhibition, per entry:
>>> result("O=C1C[C@H]2[C@H](c3ccc(Br)cc3)[C@H]3C(=O)c4ccccc4NC(=O)[C@@H]3[C@@]2(O)c2ccccc2N1")
"3% (inactive)"
>>> result("COc1ccc2c3c1OC(C)C31CC(=O)CCC1CC2 (stereo unspecified)")
"6% (inactive)"
>>> result("S=C(NCc1ccccn1)N/N=C/c1ccccn1")
"87% (active)"
>>> result("CC1CN(/N=C\\c2ccc([N+](=O)[O-])o2)C(=O)O1 (stereo unspecified)")
"4% (inactive)"
>>> result("CC(/C=C/c1ccc([N+](=O)[O-])o1)=N/N1CC(CN2CCOCC2)OC1=O (stereo unspecified)")
"34% (inactive)"

Query: growth inhibition; subject: C/C(=N\OCC(O)CNCCSCc1ccccc1)c1ccccc1Cl (stereo unspecified)
2% (inactive)

Query: growth inhibition; subject: "O=[N+]([O-])c1ccc2nc(=S)[nH]n2c1"
20% (inactive)

Query: growth inhibition; subject: "c1ccc2nc3c(nc2c1)sc1ccccc13"
95% (active)

Query: growth inhibition; subject: "CCOP(=O)(OCC)/C(C#N)=C/c1cccc(Oc2ccccc2)c1"
7% (inactive)

Query: growth inhibition; subject: "COc1ccc(N=c2cc(-c3ccccc3)oc3ccccc23)cc1"
-5% (inactive)

Query: growth inhibition; subject: "C[n+]1c(/C=C/c2ccc(/C=N/NC(=O)c3ccc(C(=O)N/N=C/c4ccc(/C=C/c5cn6ccccc6[n+]5C)cc4)cc3)cc2)cn2ccccc21"
95% (active)

Query: growth inhibition; subject: "COC(=O)C1=C(C(=O)OC)CC(n2nnc(C(=O)OC)c2C(=O)OC)=CC1"
-3% (inactive)

Query: growth inhibition; subject: "Nc1ccc2c(c1)C(=O)c1c(F)cccc1-2"
53% (inactive)

Query: growth inhibition; subject: "O=[N+]([O-])c1ccc(C(c2c[nH]c3ccccc23)c2c[nH]c3ccccc23)cc1"
3% (inactive)

Query: growth inhibition; subject: "COc1ccccc1NC(=O)c1ccc(Cl)cc1"
22% (inactive)

Query: growth inhibition; subject: "O=c1cccccc1[O-].O=c1cccccc1[O-].O=c1cccccc1[O-].[Eu+3]"
16% (inactive)

----------
Assay: NCI Yeast Anticancer Drug Screen. Data for the mgt1 strain (AID 153)
Details: S. cerevisiae mgt1 mutant growth inhibition; at 3.7 µM; active compounds read high
Protocol: Growth inhibition of yeast strains with defined genetic alterations is measured as a screen for potential anti-cancer activity. Selected strains with alterations in DNA damage repair or cell cycle control were exposed to compounds and growth inhibition was measured relative to vehicle treated controls. The strain used in this assay is mgt1
About 79,000 compounds went through this panel and 15% of them were active in at least one assay; those are over-represented in the sample as a whole.
Quantity Kind: growth inhibition (%)
Give the value, in units of %, as a plain number.

>>> recorded_number("Fc1ccc(Nc2ccc3ccccc3c2)cc1")
-1
>>> recorded_number("O=C(Cc1ccccc1)NNc1nc(NNC(=O)c2ccncc2)nc(Nc2ccc(Cl)cc2)n1")
3
>>> recorded_number("O=C(NCCNCCNC(=O)c1cc(-c2ccccc2)nc2ccccc12)c1cc(-c2ccccc2)nc2ccccc12")
-1
>>> recorded_number("CC(=O)O[C@H]1CC[C@@]2(C)C(=CC[C@@H]3C2CC[C@]2(C)C(=O)NC(=O)CC32)C1 (some centres not stated)")
-19
>>> recorded_number("S=C1N(c2ccc(Cl)cc2)C2=C(N=Nc3ccccc3)C(=Nc3ccccc3S2)N1c1ccccn1")
15
>>> recorded_number("NC(=S)N/N=C1\\c2ccccc2CCC1CCC1(O)CCc2ccccc2C1=O (configuration not stated)")
18

Shifting focus to the molecule that follows.
Query: growth inhibition; subject: "O=C(/N=N/C(=O)Oc1ccccc1)Oc1ccccc1"
-61

----------
Assay: NCI Yeast Anticancer Drug Screen. Data for the mlh1 rad18 strain (AID 175)
Conditions: S. cerevisiae mlh1 rad18 strain growth inhibition; at 50.0 µM (retest, dose inferred, filed as 5.0); active compounds read high
This is part of a sample that, as a whole, favours compounds with a hit. Of some 79,000 tested, about 15% had one in any assay.
Recorded measurements of growth inhibition, one per entry
Give the value, in units of %, as a plain number.

Query: growth inhibition; subject: "O=c1c2ccccc2nc(-c2cccc([N+](=O)[O-])c2)n1O"
98

Query: growth inhibition; subject: "CCN(CC)CCC(=O)Nc1ccc2sc3ccccc3c(=O)c2n1"
1

Query: growth inhibition; subject: "Cc1c2cc[n+](CCO)cc2c(C)c2c1[nH]c1ccc(O)cc12"
36

Query: growth inhibition; subject: "O=[N+]([O-])c1ccc(S(=O)(=O)Cc2ccccc2)c([N+](=O)[O-])c1"
100

Query: growth inhibition; subject: "CCOC(=O)/C(=C/c1cccc(Cl)c1)N(CC)CC"
83

Query: growth inhibition; subject: COc1ccc2c(c1)CCCC(Br)C2=O (configuration not stated)
73

Query: growth inhibition; subject: "c1ccc2c(c1)ccn2CCc1c[nH]c2ccccc12"
51

Query: growth inhibition; subject: "CC(=O)/C=C/c1cccc([N+](=O)[O-])c1"
94

Query: growth inhibition; subject: "O=c1c2ccccc2nc(-c2ccc(Cl)cc2)n1O"
98

Query: growth inhibition; subject: "Cc1c2c(nc3ccccc13)C(=O)c1cccnc1C2=O"
90

Query: growth inhibition; subject: Cc1cccc2c1C1c3c(C)cccc3C(CC(=O)O)CC1CC2 (configuration not stated)
97

Query: growth inhibition; subject: "Cc1ccc(C)c(C(=N)c2ccccc2Cc2ccccc2)c1"
94

----------
Test: NCI Yeast Anticancer Drug Screen. Data for the rad18 strain (AID 177)
Details: S. cerevisiae rad18 mutant growth inhibition; at 1.2 µM; active compounds read high
Experimental: Growth inhibition of yeast strains with defined genetic alterations is measured as a screen for potential anti-cancer activity. Selected strains with alterations in DNA damage repair or cell cycle control were exposed to compounds and growth inhibition was measured relative to vehicle treated controls. The strain used in this assay is rad18
This is part of a sample that, as a whole, favours compounds with a hit. Of some 79,000 tested, about 15% had one in any assay. Calls of active or inactive are those of the source. Cut-off read from the data, not from the text of the source: active = growth inhibition above about 70%; inactive = the rest.
Recorded measurements of growth inhibition, one per entry

Recorded growth inhibition, per entry:
>>> result("OC1(c2ccccc2)C2CC=CC2C1(c1ccccc1)c1ccccc1 (stereo unspecified)")
"-8% (inactive)"
>>> result("O=C1C=C(NCCc2cc(Br)c(O)c(Br)c2)C(=O)c2ncccc21")
"55% (inactive)"
>>> result("CC12CCC(CC(=O)/C1=C(/Br)I)C2(C)C (stereo unspecified)")
"3% (inactive)"
>>> result("CC(C)(CN1CCCCC1)C(=O)CC(SCCS(=O)(=O)O)c1ccccc1 (stereo unspecified)")
"10% (inactive)"
>>> result("CCCCS/C(=C(/C#N)C(N)=O)c1cc2c([nH]1)CCCC2")
"0% (inactive)"

Query: growth inhibition; subject: "Nc1ccc2c(c1)C(=O)c1c(F)cccc1-2"
1% (inactive)

Query: growth inhibition; subject: "O=S1(=O)CCC2=CC(C(F)(F)F)=CC(C(F)(F)F)=CN21"
54% (inactive)

Query: growth inhibition; subject: "O=C(Cc1ccccc1)NNc1nc(NNC(=O)c2ccncc2)nc(Nc2ccc(Cl)cc2)n1"
9% (inactive)

Query: growth inhibition; subject: "CCCCOc1ccc2nc(C)cc(N=[N+]=[N-])c2c1"
16% (inactive)

Query: growth inhibition; subject: "c1cc(-c2sc(-c3ccncc3)c(-c3ccncc3)c2-c2ccncc2)ccn1"
10% (inactive)

Query: growth inhibition; subject: "CCC(/C=C/c1ccccc1)=N\Nc1ccc(Cl)c(Cl)c1"
6% (inactive)

Query: growth inhibition; subject: "CC1=COC2=C(C)C(=O)C(=O)c3c(C)ccc1c32"
-3% (inactive)

Query: growth inhibition; subject: COc1ccccc1/C=C\C(=O)C1COCN1 (stereo unspecified)
0% (inactive)

Query: growth inhibition; subject: O=C1SS(=O)c2ccccc21 (stereo unspecified)
13% (inactive)

Query: growth inhibition; subject: "CNC(=S)N/N=C(/C)CCC/C(C)=N/NC(=S)NC"
1% (inactive)

Query: growth inhibition; subject: "C/C(=N\Sc1ccccc1)c1ccccc1O"
-2% (inactive)
